Every entry's value here was drawn from patent EP0269230A1.

tested on: Musca domestica (WRL strain); assay: Topical application to unanaesthetised female Musca domestica; assay type: in vivo; details: topical application in cellosolve; mortality assessed after 10 mins, 1 hr, 24 hrs and 48 hrs
Attribute: LD₅₀
measurement_kind: LD₅₀

compound=CC=CCC/C(C)=C/Cn1c(C)nc2ccccc21 experimental_value="< 10 µg/fly"
compound=COC(C)(C)CCC/C(C)=C/Cn1c(C)nc2c(C)c(C)ccc21 experimental_value="< 10 µg/fly"
compound="CC(C)=CCC/C(C)=C/Cn1c(Cl)nc2ccccc21 [2-Chloro-1-geranylbenzimidazole]" experimental_value="< 10 µg/fly"
